Tested on: spindle assembly checkpoint
TEST PROTOCOL: SAC-Formation - Paclitaxel-Induced Assay
Assay type: cell-based
RUN CONDITIONS: Homo sapiens; HeLa cells, paclitaxel 0.05 μM, 24 h, phosphorylated histone H3 on serine 10
MEASUREMENT LABEL: IC50 (nM)
Please respond with the number in nM and leave the unit unwritten.

COc1ccc(NC(=O)c2c(C)nsc2Nc2cnc(C(F)(F)F)cn2)cn1 [Example 85] ... 52

Prompt: Give recorded IC50 with spindle assembly checkpoint for the following molecule: CCc1ccccc1NC(=O)c1c(C)nsc1Nc1cnc2cc(F)ccc2n1 [Example 20]
Completion: 400

Prompt: Query for spindle assembly checkpoint: what IC50 does the record show for Cc1nsc(Nc2cnc(Cl)cn2)c1C(=O)Nc1ccc(F)c(F)c1 [Example 74] ?
Completion: 31

Prompt: Write down the reported IC50 of Cc1nsc(Nc2cnc3ccccc3n2)c1C(=O)Nc1ccc(F)c(F)c1 [Example 50] , test system: spindle assembly checkpoint.
Completion: 28

Prompt: Record COc1ccc(NC(=O)c2c(C)nsc2Nc2cnc3cc(C(F)(F)F)ccc3n2)cn1 [Example 45] : what is its IC50 with spindle assembly checkpoint?
Completion: 140

Prompt: Item COC(=O)c1cnc(Nc2snc(C)c2C(=O)Nc2ccc(F)c(F)c2)cn1 [Example 59] with spindle assembly checkpoint - IC50?
Completion: 260

Prompt: Give the reported IC50 for Cc1nsc(Nc2cncc(C(=O)N3CCOCC3)n2)c1C(=O)Nc1ccc(F)c(F)c1 [Example 107] (system: spindle assembly checkpoint).
Completion: 210

Prompt: Param readout = IC50; param system = spindle assembly checkpoint; param query = COc1ccc(NC(=O)c2c(C)nsc2Nc2nc3c(C(F)(F)F)cccc3s2)cc1F [Example 47] ; response: value
Completion: 63

Prompt: Write down the reported IC50 of CCNc1cncc(Nc2snc(C)c2C(=O)Nc2ccc(F)c(F)c2)n1 [Example 78] , test system: spindle assembly checkpoint.
Completion: 910

Prompt: Which measured IC50 belongs to Cc1nsc(Nc2ncc(C(=O)N(C)C)s2)c1C(=O)Nc1ccc(F)c(F)c1 [Example 49] , tested on spindle assembly checkpoint?
Completion: 960

Prompt: Record COc1ccc2nc(Nc3snc(C)c3C(=O)Nc3ccc(OC)nc3)sc2c1 [Example 87] : what is its IC50 with spindle assembly checkpoint?
Completion: 350

Prompt: Quick check: IC50 on spindle assembly checkpoint, item COc1ccc(NC(=O)c2c(C)nsc2Nc2nc3c(C(F)(F)F)cccc3s2)cn1 [Example 48] ?
Completion: 140

Prompt: What value of IC50 on spindle assembly checkpoint does COC(=O)c1cnc(Nc2snc(C)c2C(=O)Nc2ccc(F)c(F)c2)o1 [Example 97] have?
Completion: 8100

====

Tested on: NCI-H460
TEST PROTOCOL: Proliferation assay (crystal violet), NCI-H460
Assay type: cell-based
RUN CONDITIONS: Homo sapiens, 96 h; NCI-H460, 4 days; read-out: Inhibition of proliferation IC50 NCI-H460
MEASUREMENT LABEL: IC50

Worked cases, answers included:
Cc1nsc(Nc2cncc(-n3cccn3)n2)c1C(=O)Nc1ccc(F)c(F)c1 ... 260 nM
CCc1ccccc1NC(=O)c1c(C)nsc1Nc1nc(C)nc2ccccc12 ... 1600 nM
Cc1nsc(Nc2nc3c(C(F)(F)F)cccc3s2)c1C(=O)Nc1ccc(Cl)c(F)c1 ... 520 nM
CCc1ccccc1NC(=O)c1c(C)nsc1Nc1cnc2ccc(Cl)cc2n1 ... 350 nM

Prompt: For `Cc1nsc(Nc2cncc(Cl)n2)c1C(=O)Nc1ccc(F)c(F)c1` , what is its reported IC50?
Completion: 180 nM

Prompt: Endpoint output: IC50 of `COc1ccc(NC(=O)c2c(C)nsc2Nc2cnc3cc(Cl)ccc3n2)cn1` . Value?
Completion: 2200 nM

Prompt: Reported IC50, compound `CCOC(=O)c1cnn2ccc(Nc3snc(C)c3C(=O)Nc3ccc(F)c(F)c3)nc12` : ____
Completion: 300 nM
